Attribution: paper PMC10321576

Molecular target: T1, TAF3 PHD-finger
T1 chain: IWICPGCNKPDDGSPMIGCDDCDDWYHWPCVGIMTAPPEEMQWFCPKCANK
Test: BLI
Bridge positions count the residues as written; N and C are the ends. Ends that are not written are not given here.
observedProperty: Kd

Specify reported Kd for the binder shown: {CH2CO}-YYLTHPYPSVFRTC (thioether N-14) [OC9, de novo cyclic peptide from mRNA display]
> 1000 nM
